Test system: IL-23R (Homo sapiens, UniProt Q5VWK5)
Sequence (Q5VWK5 24-629): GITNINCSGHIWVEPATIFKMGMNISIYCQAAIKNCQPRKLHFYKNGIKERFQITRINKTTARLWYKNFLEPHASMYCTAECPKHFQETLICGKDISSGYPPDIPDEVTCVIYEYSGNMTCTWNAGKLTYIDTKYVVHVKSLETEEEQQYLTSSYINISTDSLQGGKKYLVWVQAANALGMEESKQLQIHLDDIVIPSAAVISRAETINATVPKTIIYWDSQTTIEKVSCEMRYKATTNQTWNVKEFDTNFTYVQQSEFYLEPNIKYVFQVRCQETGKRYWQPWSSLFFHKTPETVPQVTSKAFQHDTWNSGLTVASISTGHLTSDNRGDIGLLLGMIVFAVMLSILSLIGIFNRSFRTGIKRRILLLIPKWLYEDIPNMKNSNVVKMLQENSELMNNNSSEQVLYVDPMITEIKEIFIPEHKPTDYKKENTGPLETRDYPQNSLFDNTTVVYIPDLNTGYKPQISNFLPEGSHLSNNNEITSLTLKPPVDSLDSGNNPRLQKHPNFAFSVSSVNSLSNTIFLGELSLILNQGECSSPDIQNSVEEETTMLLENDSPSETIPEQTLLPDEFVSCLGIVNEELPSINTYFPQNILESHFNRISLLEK
Protocol details: cell-based
Measurement conditions: PBMC pSTAT3 IC50 (nM), PBMCs from healthy donors, IL-23 5 ng/mL, 30 minutes, phosphorylated STAT3
Positions of bridges follow the written chain, without caps; N, C: chain ends. Non-standard residues stand in square brackets, D forms with d. Residues, ends and D or L forms follow the SMILES beside them. *: point of attachment. 2Nal = N[C@@H](Cc1ccc2ccccc2c1)C(=O)O; AEF = NCCOc1ccc(C[C@H](N)C(=O)O)cc1; αMeF = C[C@](N)(Cc1ccccc1)C(=O)O; Pen = CC(C)(S)[C@H](N)C(=O)O; Thp = NC1(C(=O)O)CCOCC1; Butyryl = CCCC(=O)*
Measured IC50 by item
The reply should be a number in nM, with the unit left off.

Compound	Test system	IC50 / nM
CCCC(=O)NCCCC[C@H](NC(=O)C1(NC(=O)[C@H](Cc2ccc3ccccc3c2)NC(=O)[C@H](Cc2ccc(OCCN)cc2)NC(=O)[C@H]2NC(=O)[C@H](CCC(N)=O)NC(=O)[C@H](Cc3c[nH]c4ccccc34)NC(=O)[C@H]([C@@H](C)O)NC(=O)[C@H](CCC(N)=O)NC(=O)[C@@H](NC(=O)[C@@H](CCCNC(=N)N)NC(C)=O)C(C)(C)SSC2(C)C)CCOCC1)C(=O)N[C@@H](CC(N)=O)C(=O)N[C@@H](Cc1ccccc1)C(N)=O [Compound 58] (Ac-[dR][Pen]QTWQ[Pen][AEF][2Nal][Thp]K(Butyryl)NF-NH2; disulfide 2-7)	IL-23R (Homo sapiens, UniProt Q5VWK5)	35

--- query ---
Which IC50 reading was recorded for the compound CC(=O)NCCCC[C@@H]1NC(=O)[C@H](Cc2c[nH]c3ccccc23)NC(=O)[C@H]([C@@H](C)O)NC(=O)[C@H](CC(N)=O)NC(=O)[C@@H](NC(=O)[C@@H](CCCNC(=N)N)NC(C)=O)C(C)(C)SSC(C)(C)[C@@H](C(=O)N[C@@H](Cc2ccc(OCCN)cc2)C(=O)N[C@@H](Cc2ccc3ccccc3c2)C(=O)NC2(C(=O)N[C@@H](CCC(=O)O)C(=O)N[C@@H](CC(N)=O)C(=O)N[C@@](C)(Cc3ccccc3)C(N)=O)CCOCC2)NC1=O [Compound 106] (Ac-[dR][Pen]NTWK(Ac)[Pen][AEF][2Nal][Thp]EN[αMeF]-NH2; disulfide 2-7) ?
13

----------
Test system: IL-23R (Homo sapiens, UniProt Q5VWK5)
Protocol details: cell-based
Measurement conditions: PBMC pSTAT3 IC50 (nM), PBMCs from healthy donors, IL-23 5 ng/mL, 30 minutes, phosphorylated STAT3
Positions of bridges follow the written chain, without caps; N, C: chain ends. Non-standard residues stand in square brackets, D forms with d. Residues, ends and D or L forms follow the SMILES beside them. *: point of attachment. 2Nal = N[C@@H](Cc1ccc2ccccc2c1)C(=O)O; AEF = NCCOc1ccc(C[C@H](N)C(=O)O)cc1; Pen = CC(C)(S)[C@H](N)C(=O)O; Thp = NC1(C(=O)O)CCOCC1; NHBn = c1ccc(CN*)cc1
IC50 values for the compounds below.
Report as a plain number; the unit nM is understood.

Compound	Reported measurement
COc1ccc(C[C@H](NC(=O)[C@@H]2CSCC[C@H](NC(=O)[C@@H](CCCNC(=N)N)NC(=O)Cn3cc(CCCF)nn3)C(=O)N[C@@H](CCC(N)=O)C(=O)N[C@@H]([C@@H](C)O)C(=O)N[C@@H](Cc3c[nH]c4ccccc34)C(=O)N[C@@H](CCC(N)=O)C(=O)N2)C(=O)N[C@@H](Cc2ccc3ccccc3c2)C(=O)NC2(C(=O)N[C@@H](CCC(=O)O)C(=O)N[C@@H](CC(N)=O)C(=O)NC3(C(N)=O)CCOCC3)CCOCC2)cc1 [Compound 25]	21

// IC50 lookup, key: CC(=O)N[C@H](CCCNC(=N)N)C(=O)N[C@@H]1C(=O)N[C@@H](CCC(N)=O)C(=O)N[C@@H]([C@@H](C)O)C(=O)N[C@@H](Cc2c[nH]c3ccccc23)C(=O)N[C@@H](CCC(N)=O)C(=O)N[C@H](C(=O)N[C@@H](Cc2ccc(OCCN)cc2)C(=O)N[C@@H](Cc2ccc3ccccc3c2)C(=O)NC2(C(=O)N[C@@H](CCC(=O)O)C(=O)N[C@@H](CC(N)=O)C(=O)N[C@@H](CC(=O)NCc3ccccc3)C(N)=O)CCOCC2)C(C)(C)SSC1(C)C [Compound 110] (Ac-[dR][Pen]QTWQ[Pen][AEF][2Nal][Thp]END(NHBn)-NH2; disulfide 2-7)
700

----------
Test system: UniProt Q5VWK5
Protocol details: cell-based
Measurement conditions: PBMC pSTAT3 IC50 (nM), PBMCs from healthy donors, IL-23 5 ng/mL, 30 minutes, phosphorylated STAT3
Property label: IC50
Report the figure along with its unit, number first.

Before answering, review these 2 worked examples.
Sample smiles	Reported measurement
CC(=O)N[C@H](CCCNC(=N)N)C(=O)N[C@H]1CCSC[C@@H](C(=O)N[C@@H](Cc2ccc(OCCN)cc2)C(=O)N[C@@H](Cc2ccc3ccccc3c2)C(=O)NC2(C(=O)N[C@@H](CCC(=O)O)C(=O)N[C@@H](CC(N)=O)C(=O)N[C@@](C)(Cc3ccccc3)C(N)=O)CCOCC2)NC(=O)[C@H](CCC(N)=O)NC(=O)[C@H](Cc2c[nH]c3ccccc23)NC(=O)[C@H]([C@@H](C)O)NC(=O)[C@H](CCC(N)=O)NC1=O	11 nM
CC(=O)NCCCC[C@@H]1NC(=O)[C@H](Cc2c[nH]c3c(C)cccc23)NC(=O)[C@H]([C@@H](C)O)NC(=O)[C@H](CC(N)=O)NC(=O)[C@@H](NC(C)=O)C(C)(C)SSC(C)(C)[C@@H](C(=O)N[C@@H](Cc2ccc(OCCN)cc2)C(=O)N[C@@H](Cc2ccc3ccccc3c2)C(=O)N[C@@](C)(CCCCN)C(=O)N[C@@H](CCCCNC(C)=O)C(=O)N[C@@H](CC(N)=O)C(=O)N[C@H](C(N)=O)[C@H](C)c2ccccc2)NC1=O	90 nM

Please state recorded IC50 (tested on UniProt Q5VWK5) of CC(=O)NCCCC[C@@H]1NC(=O)[C@H](Cc2c[nH]c3c(C)cccc23)NC(=O)[C@H]([C@@H](C)O)NC(=O)[C@H](CC(N)=O)NC(=O)[C@@H](NC(C)=O)C(C)(C)SSC(C)(C)[C@@H](C(=O)N[C@@H](Cc2ccc(OCCN)cc2)C(=O)N[C@@H](Cc2ccc3ccccc3c2)C(=O)NC2(C(=O)N[C@@H](CCCCNC(=O)C(C)(C)C)C(=O)N[C@@H](CC(N)=O)C(=O)NC3(C(N)=O)CCOCC3)CCOCC2)NC1=O
3.7 nM

----------
Quick list: IC50 per entry.
Test system: IL-23R (Homo sapiens);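 further: cryopreserved PBMCs stimulated at 37 °C in 5% CO2, then lysed, with phosphorylated STAT3 quantified in lysates using a phospho-STAT panel kit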
Protocol details: cell-based
Measurement conditions: PBMC pSTAT3 IC50 (nM), PBMCs from healthy donors, IL-23 5 ng/mL, 30 minutes, phosphorylated STAT3
Positions of bridges follow the written chain, without caps; N, C: chain ends. Non-standard residues stand in square brackets, D forms with d. Residues, ends and D or L forms follow the SMILES beside them. 2Nal = N[C@@H](Cc1ccc2ccccc2c1)C(=O)O; AEF = NCCOc1ccc(C[C@H](N)C(=O)O)cc1; αMeF = C[C@](N)(Cc1ccccc1)C(=O)O; Pen = CC(C)(S)[C@H](N)C(=O)O; Thp = NC1(C(=O)O)CCOCC1
// note: answer is a bare numeric in nM

Would you please look over these solved cases?
Molecule	IC50, nM
CC(=O)NCCCC[C@@H]1NC(=O)[C@H](Cc2c[nH]c3c(C)cccc23)NC(=O)[C@H]([C@@H](C)O)NC(=O)[C@H](CC(N)=O)NC(=O)[C@@H](NC(C)=O)C(C)(C)SSC(C)(C)[C@@H](C(=O)N[C@@H](Cc2ccc(OCCN)cc2)C(=O)N[C@@H](Cc2ccc3ccccc3c2)C(=O)N[C@@](C)(CCCCN)C(=O)N[C@@H](CCCCNC(C)=O)C(=O)N[C@@H](CC(N)=O)C(=O)N[C@@](C)(Cc2ccc(O)cc2)C(N)=O)NC1=O [Compound 151]	5.7
CC(=O)NCCCC[C@@H]1NC(=O)[C@H](Cc2c[nH]c3c(C)cccc23)NC(=O)[C@H]([C@@H](C)O)NC(=O)[C@H](CC(N)=O)NC(=O)[C@@H](NC(C)=O)CSSC[C@@](C)(C(=O)N[C@@H](Cc2ccc(OCCN)cc2)C(=O)N[C@@H](Cc2ccc3ccccc3c2)C(=O)N[C@@](C)(CCCCN)C(=O)N[C@@H](CCCCNC(C)=O)C(=O)N[C@@H](CC(N)=O)C(=O)N[C@@](C)(Cc2ccccc2)C(N)=O)NC1=O [Compound 118]	30
CC(=O)N[C@H](CCCNC(=N)N)C(=O)N[C@H]1CCSC[C@@H](C(=O)N[C@@H](Cc2ccc(OCCN)cc2)C(=O)N[C@@H](Cc2ccc3ccccc3c2)C(=O)NC2(C(=O)N[C@@H](CCC(=O)O)C(=O)N[C@@H](CC(N)=O)C(=O)N[C@@](C)(Cc3ccc4ccccc4c3)C(N)=O)CCOCC2)NC(=O)[C@H](CCC(N)=O)NC(=O)[C@H](Cc2c[nH]c3ccccc23)NC(=O)[C@H]([C@@H](C)O)NC(=O)[C@H](CCC(N)=O)NC1=O [Compound 80]	46
C[C@@H](O)[C@@H]1NC(=O)[C@H](CCC(N)=O)NC(=O)[C@@H](NC(=O)[C@H](N)CCCNC(=N)N)CCSC[C@@H](C(=O)N[C@@H](Cc2ccc(OCCNC(=O)OC(C)(C)C)cc2)C(=O)N[C@@H](Cc2ccc3ccccc3c2)C(=O)NC2(C(=O)N[C@@H](CCC(=O)O)C(=O)N[C@@H](CC(N)=O)C(=O)NC3(C(N)=O)CCOCC3)CCOCC2)NC(=O)[C@H](CCC(N)=O)NC(=O)[C@H](Cc2c[nH]c3ccccc23)NC1=O [Compound 47]	5.3

With those in mind, consider the next molecule.
Can you look up IC50 on IL-23R (Homo sapiens) for CC(=O)N[C@H](CCCNC(=N)N)C(=O)N[C@@H]1C(=O)N[C@@H](CCC(N)=O)C(=O)N[C@@H]([C@@H](C)O)C(=O)N[C@@H](Cc2c[nH]c3ccccc23)C(=O)N[C@@H](CCC(N)=O)C(=O)N[C@H](C(=O)N[C@@H](Cc2ccc(OCCN)cc2)C(=O)N[C@@H](Cc2ccc3ccccc3c2)C(=O)NC2(C(=O)N[C@@H](CCC(=O)O)C(=O)N[C@@H](CC(N)=O)C(=O)N[C@@](C)(Cc3ccccc3)C(N)=O)CCOCC2)C(C)(C)SSC1(C)C [Compound 97] (Ac-[dR][Pen]QTWQ[Pen][AEF][2Nal][Thp]EN[αMeF]-NH2; disulfide 2-7) ?
31
